Biological target: IKKε (Homo sapiens (Human), UniProt Q14164)
Sequence (Q14164 whole entry): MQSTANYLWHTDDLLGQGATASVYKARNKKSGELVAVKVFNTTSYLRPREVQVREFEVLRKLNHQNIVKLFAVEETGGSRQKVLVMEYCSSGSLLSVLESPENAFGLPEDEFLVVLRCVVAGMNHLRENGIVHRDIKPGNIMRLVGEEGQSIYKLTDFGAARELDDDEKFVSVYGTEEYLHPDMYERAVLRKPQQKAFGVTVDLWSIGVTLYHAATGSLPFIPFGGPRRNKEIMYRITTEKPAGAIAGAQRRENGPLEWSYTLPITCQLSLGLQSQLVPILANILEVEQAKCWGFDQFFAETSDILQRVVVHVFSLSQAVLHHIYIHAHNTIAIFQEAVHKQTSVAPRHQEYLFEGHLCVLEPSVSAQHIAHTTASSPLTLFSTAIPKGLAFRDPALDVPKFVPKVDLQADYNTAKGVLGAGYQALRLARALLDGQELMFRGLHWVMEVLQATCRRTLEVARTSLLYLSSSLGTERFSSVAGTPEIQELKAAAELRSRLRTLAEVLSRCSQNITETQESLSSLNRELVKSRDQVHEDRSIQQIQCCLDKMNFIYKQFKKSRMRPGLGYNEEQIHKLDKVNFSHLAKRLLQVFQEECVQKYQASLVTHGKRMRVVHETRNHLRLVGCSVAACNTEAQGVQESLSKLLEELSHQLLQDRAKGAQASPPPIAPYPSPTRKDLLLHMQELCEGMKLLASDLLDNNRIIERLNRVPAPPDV
Assay: Lanthascreen TR-FRET kinase inhibition assay, IKKε
Assay type: biochemical
Conditions: 20 μM ATP (apparent Km), 2 nM kinase, 1 h
Entries and their measured IC50 follow.

Please review the following examples before continuing.
INSERT INTO measurements (compound, measured) VALUES
  ('N#Cc1nc(-c2ccnc(Nc3ccc(NC(=O)CN4CCOCC4)nc3)n2)ccc1N1CC[C@H](F)C1 [DMX-142]', '< 0.015 µM'),
  ('Cn1cc(Nc2nccc(-c3cnc(N4CCC[C@@H]4C(=O)O)c(C#N)c3)n2)cn1 [DMX-40]', '< 9 µM'),
  ('CC(C)(N)C(=O)Nc1ccc(Nc2nccc(-c3cnc(N4CC[C@H](F)C4)c(C#N)c3)n2)cn1 [DMX-62]', '< 0.03 µM'),
  ('COCCNc1ncc(-c2ccnc(Nc3ccc(NC4CCN(C)CC4)nc3)n2)cc1C#N [DMX-118]', '< 1 µM'),
  ('N#Cc1cc(-c2ccnc(Nc3ccc(CN4CCNC(=O)C4)nc3)n2)cnc1N1CC[C@H](F)C1 [DMX-102]', '< 0.015 µM'),
  ('N#Cc1cc(-c2ccnc(Nc3ccc(CN4CCOCC4)cc3)n2)cnc1N1CC[C@H](F)C1 [DMX-30]', '< 0.015 µM'),
  ('N#Cc1cc(-c2ccnc(Nc3ccc(N4CCOCC4)cc3)n2)cnc1N1CC[C@H](O)C1 [DMX-49]', '< 0.015 µM');

# next compound below
// field: IC50; key: CN1CCC(NC(=O)c2cccc(Nc3nccc(-c4cnc(N[C@@H]5CCOC5)c(C#N)c4)n3)c2)CC1 [DMX-115] ; value = < 1 µM
